# Tested on: U2OS
# assay: Multiplex assay against U2OS
# Type: toxicity, cell-based
# details: human, 48 h, 10 µM, compound concentration 10 uM, replicate 2
Non-standard residues stand in square brackets, D forms with d. Residues, ends and D or L forms follow the SMILES beside them.
assay.metric: Population Mitotic Cells (%)

Request: Reported Population Mitotic Cells (%), compound COc1ccc2[nH]c(I)c(CCNC(C)=O)c2c1 [IODOMELATONIN] : ____
Response: 0%

Request: Reported Population Mitotic Cells (%), compound CCCCCCNC(=O)Nc1ccc(S(=O)(=O)Nc2ccc(CCNC[C@H](O)COc3ccc(O)cc3)cc2)cc1 [L-755507] : ____
Response: 5%

Request: Reported Population Mitotic Cells (%), compound N[C@](CC1c2ccccc2Oc2ccccc21)(C(=O)O)[C@H]1C[C@@H]1C(=O)O : ____
Response: 18%

Request: Reported Population Mitotic Cells (%), compound COc1cc(C(=O)N2CC[C@@H](O)[C@@H](N)C2)cc2nc(-c3cc4ccccc4n3CC3CC3)n(C)c12.Cl : ____
Response: 7%

Request: Reported Population Mitotic Cells (%), compound O=C(O)CCC/C=C\CC1C(O)CC(O)C1/C=C/C(O)COc1cccc(Cl)c1 (stereo not drawn) [CLOPROSTENOL] : ____
Response: 15%

Request: Reported Population Mitotic Cells (%), compound Cc1cc(-c2ccc3c(c2)CC[C@H]3N2CC3(CCN(C(=O)Cc4cn5cc(C)sc5n4)CC3)C2)ncn1 [PF-5190457] : ____
Response: 23%

Request: Reported Population Mitotic Cells (%), compound CC(C)C[C@@H]1NC(=O)[C@@H](C(C)C)NC(=O)[C@@H]2CCCN2C(=O)[C@@H](CC(=O)O)NC(=O)[C@@H](Cc2c[nH]c3ccccc23)NC1=O [BQ-123] (cyclo(L[dW][dD]P[dV])) : ____
Response: 18%

Request: Reported Population Mitotic Cells (%), compound Nc1nc(-c2ccco2)c2cnn(Cc3ccccc3F)c2n1 : ____
Response: 13%

Request: Reported Population Mitotic Cells (%), compound O=C(NCCNCC(O)COc1ccc(O)cc1)N1CCOCC1.O=C(NCCNCC(O)COc1ccc(O)cc1)N1CCOCC1.O=C(O)/C=C/C(=O)O (stereo not drawn) [XAMOTEROL FUMARATE] : ____
Response: 5%

Request: Reported Population Mitotic Cells (%), compound C[C@H](NC(=O)CNC(=O)c1cccc(Cl)c1)c1ccccc1 : ____
Response: 0%

Request: Reported Population Mitotic Cells (%), compound Cc1sc2c(c1C)C(c1ccc(Cl)cc1)=N[C@H](CC(=O)OC(C)(C)C)c1nnc(C)n1-2 : ____
Response: 10%

Request: Reported Population Mitotic Cells (%), compound COc1cc(OC2CCN(C(C)=O)CC2)ccc1C(=O)N1CCC(N2C(=O)OCc3ccccc32)CC1 : ____
Response: 0%

Request: Reported Population Mitotic Cells (%), compound COCCCN1CCC(NC(=O)c2cc(Cl)c(N)c3c2OCC3)CC1 [PRUCALOPRIDE] : ____
Response: 9%

Request: Reported Population Mitotic Cells (%), compound C=CCN1C[C@H](C(=O)N(CCCN(C)C)C(=O)NCC)C[C@@H]2c3cccc4[nH]cc(c34)C[C@H]21 [CABERGOLINE] : ____
Response: 12%

Request: Reported Population Mitotic Cells (%), compound Cn1cc(C(=O)OCC2CCN(CCNS(C)(=O)=O)CC2)c2ccccc21 : ____
Response: 25%

Request: Reported Population Mitotic Cells (%), compound Cc1c(Cc2ccc3ccccc3n2)c2cc(F)ccc2n1CC(=O)O [TIMAPIPRANT] : ____
Response: 7%

Request: Reported Population Mitotic Cells (%), compound COC(c1ccccc1)(c1ccccc1)[C@H](Oc1nc(C)cc(C)n1)C(=O)O [AMBRISENTAN] : ____
Response: 18%

Request: Reported Population Mitotic Cells (%), compound S=C(NCCCc1c[nH]cn1)NCCCN(Cc1ccc(Cl)c(Cl)c1)c1ccc(Br)cn1 : ____
Response: 26%

Request: Reported Population Mitotic Cells (%), compound Cc1ccc(OCC(O)C(C)NC(C)C)c2c1CCC2.Cl (stereo not drawn) : ____
Response: 22%

Request: Reported Population Mitotic Cells (%), compound Nc1nc(CC(=O)Nc2ccc(CCNC[C@H](O)c3ccccc3)cc2)cs1 [MIRABEGRON] : ____
Response: 29%

Request: Reported Population Mitotic Cells (%), compound Cc1cc(NC(=O)NCCN2CCC(O)(Cc3ccccc3)CC2)c2ccccc2n1 [PALOSURAN] : ____
Response: 10%

Request: Reported Population Mitotic Cells (%), compound O=C(Nc1cc(-c2ccccc2)nn1-c1ccccc1F)c1ccc([N+](=O)[O-])cc1 : ____
Response: 10%

Request: Reported Population Mitotic Cells (%), compound OCCCNc1cc(-c2ccnc(Nc3cccc(Cl)c3)n2)ccn1 : ____
Response: 4%

Request: Reported Population Mitotic Cells (%), compound CC(C)(C)c1ccc(CSc2cnn(C(C)(C)C)c(=O)c2Cl)cc1 [PYRIDABEN] : ____
Response: 4%

Request: Reported Population Mitotic Cells (%), compound COc1ccc2c(c1OCc1ccccc1)C[C@@H](C(=O)O)N(C(=O)C(c1ccccc1)c1ccccc1)C2 [OLODANRIGAN] : ____
Response: 14%

Request: Reported Population Mitotic Cells (%), compound CN(C)C(=O)Cn1cc(-c2ccc(-c3nnc4ccccn34)cc2)cn1 : ____
Response: 14%

Request: Reported Population Mitotic Cells (%), compound CCCCC[C@H](O)/C=C/[C@H]1[C@H](O)CC(=O)[C@@H]1CCCCCCC(=O)O [ALPROSTADIL] : ____
Response: 0%

Request: Reported Population Mitotic Cells (%), compound CN1CCN2c3ccccc3Cc3ccccc3C2C1.Cl (stereo not drawn) [MIANSERIN HYDROCHLORIDE] : ____
Response: 12%
